Test system: NCI-H226 lung
Assay: NCI tumour cell line growth inhibition, 48 h
readout: TGI

smiles.representation | recorded.measurement
Cc1ccc2c(n1)C(=O)c1cc(C)c(C)cc1C2=O | > 100 µM
COc1cc2c(cc1OCCCN1CCOCC1)N=C[C@@H]1CCCN1C2=O | 65.9 µM

What the record says about Nc1nc(N)c2ncn(Cc3ccccc3CO)c2n1 : TGI is > 100 µM

What the record says about ON[C@@H]1C=C[C@H](n2cnc3c(NC4CC4)ncnc32)C1 : TGI is > 100 µM

###

System: NCI-H226 lung
Assay: NCI tumour cell line growth inhibition, 48 h
TGI values, listed per item

Take a look at these entries with their results.
compound | study.system | TGI
NC(N)=N/N=C/c1c(Cl)nc2n1CCS2 | NCI-H226 lung | > 100 µM
Cc1ccccc1-n1c(=O)nc2n(-c3ccc(C(C)(C)C)cc3)c3ccccc3cc-2c1=O | NCI-H226 lung | 38.2 µM
CC(C)CC1CC2C(=O)N(c3ccccc3)C(=O)C2c2[nH]c3ccccc3c21 (centres undefined) | NCI-H226 lung | 66.1 µM
O=C(NCCc1nccs1)c1cnc2c(S)cccc2c1 | NCI-H226 lung | 21.4 µM
CC(C)(CO)CNc1nc(N)nc(Cl)c1C=O | NCI-H226 lung | > 100 µM
CCOC(=O)C1Cc2ccc(C)cc2C1=O (centres undefined) | NCI-H226 lung | > 100 µM
O=C1C=CC2(C=C1)O[C@H](CCc1ccccc1)[C@@H](CCc1ccccc1)O2 | NCI-H226 lung | > 100 µM
COC(=O)c1ccc(C)cc1C1CN=NC12Cc1c(C)cccc1C2=O (centres undefined) | NCI-H226 lung | > 90.8 µM
O=C(O)CC(CC(=O)O)n1cccc1 | NCI-H226 lung | > 100 µM
COc1cccc(C2=C(c3cn(C)c4c(C)cccc34)C(=O)NC2=O)c1 | NCI-H226 lung | > 25 µM

What the record says about CCSc1c2cc(OC)ccc2nc2ccc(OC)cc12 : TGI is 40.1 µM

What the record says about COc1ccc2c(c1)C1Oc3ccccc3CC1CO2 (centres undefined) : TGI is > 100 µM

What the record says about O=C1C=CC(=O)N1c1ccc2ccccc2c1 : TGI is 33.3 µM

What the record says about Cc1ncc2c(n1)CCC1=C2OS(=O)(=O)CC1N(C)C (centres undefined) : TGI is > 100 µM

What the record says about COc1ccccc1NC(=S)Nc1ccccn1 : TGI is > 100 µM

What the record says about CC(C)(C)c1cc(C(C)(C)C)c(SSc2c(C(C)(C)C)cc(C(C)(C)C)c(O)c2O)c(O)c1O : TGI is 35 µM

What the record says about COc1ccc(-c2c(C#N)c(N)nc(Sc3ccccc3N)c2C#N)cc1 : TGI is > 100 µM

What the record says about C1=C(c2ccccc2)NC2=N[C@H]3CCCC[C@@H]3N2C1c1ccccc1 (some centres undefined) : TGI is 28.9 µM

What the record says about COc1ccc(-n2c(C)nc3ccc(NC4OC(COC(C)=O)C(OC(C)=O)C(OC(C)=O)C4OC(C)=O)cc3c2=O)cc1 (centres undefined) : TGI is > 100 µM
